Numbers sourced from the NIST ThermoML archive (doi:10.1016/j.jct.2011.11.025).

assay: activity coefficient (dimensionless); of the first substance listed, at infinite dilution; xn = mol fraction of the nth substance listed; conditions: 318.15 K; Liquid; Chromatography; x1 = 0
activity coefficient less than 5 is met; activity coefficient greater than or equal to 5 is not met.

// below: answered molecules
molecule: CCCCCCCCCC [decane] + CCCCCCn1cc[n+](C)c1.N#C[B-](C#N)(C#N)C#N
class label: not met

molecule: c1ccccc1 [benzene] + CCCCCCn1cc[n+](C)c1.N#C[B-](C#N)(C#N)C#N
class label: met

molecule: C=CCCCCCCCC [1-decene] + CCCCCCn1cc[n+](C)c1.N#C[B-](C#N)(C#N)C#N
class label: not met

molecule: CCO [ethanol] + CCCCCCn1cc[n+](C)c1.N#C[B-](C#N)(C#N)C#N
class label: met

molecule: C1CCCCCCC1 [cyclooctane] + CCCCCCn1cc[n+](C)c1.N#C[B-](C#N)(C#N)C#N
class label: not met

Kindly consider the entry below.
Consider C=CCCCCCC [oct-1-ene] + CCCCCCn1cc[n+](C)c1.N#C[B-](C#N)(C#N)C#N . Does its activity coefficient lie strictly below 5?
not met

----------
Exercise: for every item that follows, state its recorded activity coefficient.
assay: activity coefficient (dimensionless); of the first substance listed, at infinite dilution; xn = mol fraction of the nth substance listed; conditions: 348.15 K; Liquid; Chromatography; x1 = 0

Respectfully, I request activity coefficient for each entry included below.
1. COC(C)(C)C [2-methoxy-2-methylpropane] + CCCCCCn1cc[n+](C)c1.N#C[B-](C#N)(C#N)C#N
2. COC(C)=O [methyl ethanoate] + CCCCCCn1cc[n+](C)c1.N#C[B-](C#N)(C#N)C#N
3. C#CCCCCC [1-heptyne] + CCCCCCn1cc[n+](C)c1.N#C[B-](C#N)(C#N)C#N
4. CCOCC [diethyl ether] + CCCCCCn1cc[n+](C)c1.N#C[B-](C#N)(C#N)C#N

[1.76, 0.55, 2.98, 1.68]

----------
test: activity coefficient (dimensionless); of the first substance listed, at infinite dilution; xn = mol fraction of the nth substance listed; conditions: 358.15 K; Liquid; Chromatography; x1 = 0
Would you kindly list activity coefficient for each of these compounds?
Numbers only.

Here's what some known entries look like.
compound: C1CCOC1 [tetrahydrofuran] + CCCCCCn1cc[n+](C)c1.N#C[B-](C#N)(C#N)C#N
activity coefficient: 0.513
--
compound: CC(C)=O [acetone] + CCCCCCn1cc[n+](C)c1.N#C[B-](C#N)(C#N)C#N
activity coefficient: 0.372
--
compound: CC(C)O [propan-2-ol] + CCCCCCn1cc[n+](C)c1.N#C[B-](C#N)(C#N)C#N
activity coefficient: 0.902
--
compound: CCC[N+](=O)[O-] [1-nitropropane] + CCCCCCn1cc[n+](C)c1.N#C[B-](C#N)(C#N)C#N
activity coefficient: 0.511
--
compound: COC(C)=O [methyl ethanoate] + CCCCCCn1cc[n+](C)c1.N#C[B-](C#N)(C#N)C#N
activity coefficient: 0.566
--
compound: C=CCCCCCCCC [1-decene] + CCCCCCn1cc[n+](C)c1.N#C[B-](C#N)(C#N)C#N
activity coefficient: 17.6
--
compound: C1CCCC1 [cyclopentane] + CCCCCCn1cc[n+](C)c1.N#C[B-](C#N)(C#N)C#N
activity coefficient: 4.02
--
compound: C1CCCCC1 [cyclohexane] + CCCCCCn1cc[n+](C)c1.N#C[B-](C#N)(C#N)C#N
activity coefficient: 5.38

For every record below, what is its activity coefficient?
1. c1ccsc1 [thiophene] + CCCCCCn1cc[n+](C)c1.N#C[B-](C#N)(C#N)C#N
2. CCC(C)(C)OC [2-methoxy-2-methylbutane] + CCCCCCn1cc[n+](C)c1.N#C[B-](C#N)(C#N)C#N

1: 0.678; 2: 2.36

----------
test: activity coefficient (dimensionless); of the first substance listed, at infinite dilution; xn = mol fraction of the nth substance listed; conditions: 338.15 K; Liquid; Chromatography; x1 = 0
Field: activity coefficient. Provide a value for each of the compounds that follow.
Give bare numbers.

compound: CCC(C)(C)OC [2-methoxy-2-methylbutane] + CCCCCCn1cc[n+](C)c1.N#C[B-](C#N)(C#N)C#N
property label: activity coefficient
observed measurement: 2.27

compound: C1CCCCC1 [cyclohexane] + CCCCCCn1cc[n+](C)c1.N#C[B-](C#N)(C#N)C#N
property label: activity coefficient
observed measurement: 5.85

compound: C=CCCCCCCCC [1-decene] + CCCCCCn1cc[n+](C)c1.N#C[B-](C#N)(C#N)C#N
property label: activity coefficient
observed measurement: 19.3

Now let's try a different one.
activity coefficient for CCC(=O)OC [methyl propanoate] + CCCCCCn1cc[n+](C)c1.N#C[B-](C#N)(C#N)C#N ?
0.648

----------
assay: activity coefficient (dimensionless); of the first substance listed, at infinite dilution; xn = mol fraction of the nth substance listed; conditions: 358.15 K; Liquid; Chromatography; x1 = 0
property label: activity coefficient
Numbers only.

compound: Cc1ccccc1C [1,2-dimethylbenzene] + CCCCCCn1cc[n+](C)c1.N#C[B-](C#N)(C#N)C#N
activity coefficient: 1.28

List reported activity coefficient for each of these compounds:
1. CCCCO [butan-1-ol] + CCCCCCn1cc[n+](C)c1.N#C[B-](C#N)(C#N)C#N
2. C#CCCCCC [1-heptyne] + CCCCCCn1cc[n+](C)c1.N#C[B-](C#N)(C#N)C#N
3. CCC(C)(C)C [2,2-dimethylbutane] + CCCCCCn1cc[n+](C)c1.N#C[B-](C#N)(C#N)C#N
4. C=CCCCCCC [oct-1-ene] + CCCCCCn1cc[n+](C)c1.N#C[B-](C#N)(C#N)C#N
5. CC(=O)O [acetic acid] + CCCCCCn1cc[n+](C)c1.N#C[B-](C#N)(C#N)C#N
6. CCCCCC [hexane] + CCCCCCn1cc[n+](C)c1.N#C[B-](C#N)(C#N)C#N

[1.07, 2.99, 8.92, 9.91, 0.323, 9.79]

----------
test: activity coefficient (dimensionless); of the first substance listed, at infinite dilution; xn = mol fraction of the nth substance listed; settings: 368.15 K; Liquid; Chromatography; x1 = 0
property label: activity coefficient

compound: CCCC(=O)OC [methyl butanoate] + CCCCCCn1cc[n+](C)c1.N#C[B-](C#N)(C#N)C#N
activity coefficient: 0.751

compound: CCCC=O [butanal] + CCCCCCn1cc[n+](C)c1.N#C[B-](C#N)(C#N)C#N
activity coefficient: 0.579

compound: CCC(C)O (stereo not drawn) [butan-2-ol] + CCCCCCn1cc[n+](C)c1.N#C[B-](C#N)(C#N)C#N
activity coefficient: 0.938

compound: CC(C)CC(C)(C)C [2,2,4-trimethylpentane] + CCCCCCn1cc[n+](C)c1.N#C[B-](C#N)(C#N)C#N
activity coefficient: 14.3

Hi, could you look up activity coefficient for each item in my list?
1. CCC[N+](=O)[O-] [1-nitropropane] + CCCCCCn1cc[n+](C)c1.N#C[B-](C#N)(C#N)C#N
2. C=C(C)c1ccccc1 [(1-methylethenyl)benzene] + CCCCCCn1cc[n+](C)c1.N#C[B-](C#N)(C#N)C#N

[0.518, 1.38]

For each listed entry, give its activity coefficient.
1. c1ccsc1 [thiophene] + CCCCCCn1cc[n+](C)c1.N#C[B-](C#N)(C#N)C#N
2. C#CCCCCCC [1-octyne] + CCCCCCn1cc[n+](C)c1.N#C[B-](C#N)(C#N)C#N

[0.689, 3.99]

----------
test: activity coefficient (dimensionless); of the first substance listed, at infinite dilution; xn = mol fraction of the nth substance listed; details: 358.15 K; Liquid; Chromatography; x1 = 0
property label: activity coefficient
Numbers only.

Some solved entries appear below for comparison.
molecule: C=CCCCC [hex-1-ene] + CCCCCCn1cc[n+](C)c1.N#C[B-](C#N)(C#N)C#N
activity coefficient: 5.44

molecule: CCCCCCCCCC [decane] + CCCCCCn1cc[n+](C)c1.N#C[B-](C#N)(C#N)C#N
activity coefficient: 31.3

molecule: CCCOCCC [dipropyl ether] + CCCCCCn1cc[n+](C)c1.N#C[B-](C#N)(C#N)C#N
activity coefficient: 3.72

Kindly review the next molecule as well.
Which activity coefficient value is on record for c1ccncc1 [pyridine] + CCCCCCn1cc[n+](C)c1.N#C[B-](C#N)(C#N)C#N ?
0.418

----------
test: activity coefficient (dimensionless); of the first substance listed, at infinite dilution; xn = mol fraction of the nth substance listed; details: 338.15 K; Liquid; Chromatography; x1 = 0
Would you mind telling me the reported activity coefficient of each entry?
Give bare numbers.

molecule: CCOC(C)(C)C [2-ethoxy-2-methylpropane] + CCCCCCn1cc[n+](C)c1.N#C[B-](C#N)(C#N)C#N
activity coefficient: 3.53
//
molecule: C1CCCC1 [cyclopentane] + CCCCCCn1cc[n+](C)c1.N#C[B-](C#N)(C#N)C#N
activity coefficient: 4.28
//
molecule: C1CCCCCC1 [cycloheptane] + CCCCCCn1cc[n+](C)c1.N#C[B-](C#N)(C#N)C#N
activity coefficient: 7.07
//
molecule: COC(C)(C)C [2-methoxy-2-methylpropane] + CCCCCCn1cc[n+](C)c1.N#C[B-](C#N)(C#N)C#N
activity coefficient: 1.71
//
molecule: CCC(=O)CC [pentan-3-one] + CCCCCCn1cc[n+](C)c1.N#C[B-](C#N)(C#N)C#N
activity coefficient: 0.518

Give me activity coefficient for each of these molecules, listed below.
1. C1COCCO1 [1,4-dioxane] + CCCCCCn1cc[n+](C)c1.N#C[B-](C#N)(C#N)C#N
2. C=C(C)c1ccccc1 [(1-methylethenyl)benzene] + CCCCCCn1cc[n+](C)c1.N#C[B-](C#N)(C#N)C#N

0.401
1.26
